This collection of values is drawn from PubChem BioAssay (NCATS).

# EXPERIMENT: Quantitative high throughput screen for delayed death inhibitors of the malarial parasite plastid, 96 hour incubation (AID 488745); note: nearly all actives have a fitted effect of over 70% in size
# EXPERIMENTAL SETUP: Plasmodium falciparum growth; series mostly up to 28.7 µM
Records with an inconclusive call do not appear. Calls of active or inactive are those of the source. Calls come from the whole dose curve; as a rule, active = well fitted inhibition curve with a large enough effect; inconclusive = small, poorly fitted or top-dose-only effect, or effect the other way; inactive = no such curve, though single readings can be large or run the other way.
Pick one and only one: True for active, False for inactive

[ask] For O=C1CCC(c2ccc(-n3ccnc3)cc2)=NN1 , what call appears in the results of this test?
[reply] False

[ask] For CC(C)COC(=O)OCN1C(=O)CN(CCN2CC(=O)N(COC(=O)OCC(C)C)C(=O)C2)CC1=O , what call appears in the results of this test?
[reply] False

[ask] For CNCCC(Oc1ccccc1C)c1ccccc1 (configuration not stated) , what call appears in the results of this test?
[reply] False

[ask] For COc1cc(-c2ccc(=O)[nH]n2)ccc1OC(F)F , what call appears in the results of this test?
[reply] False

[ask] For CC1(C)CCC(NC(=O)[C@@H](N)CCC(=O)O)CC1 , what call appears in the results of this test?
[reply] False

[ask] For N[C@H](CO)C(=O)O , what call appears in the results of this test?
[reply] False

[ask] For Oc1ccc(O)cc1 , what call appears in the results of this test?
[reply] True

----------
# EXPERIMENT: Validation screen for small molecules that induce DNA re-replication in MCF 10A normal breast cells (AID 463097); note: 0% is about no effect; nearly all actives have a fitted effect of over 60% in size
# EXPERIMENTAL SETUP: MCF 10A cells, DNA re-replication phenotype imaging; series mostly up to 46.1 µM
Records with an inconclusive call do not appear. Activity calls are given as the source filed them. The call rests on the fitted dose curve; in most records, active means well fitted activation curve with a large enough effect; inconclusive means small, poorly fitted or top-dose-only effect; inactive means flat fitted curve, though single readings scatter.
MEASURED ATTRIBUTE: outcome

>>> measurement("CC(C)COC(=O)OCN1C(=O)CN(CCN2CC(=O)N(COC(=O)OCC(C)C)C(=O)C2)CC1=O")
"inactive"
>>> measurement("N[C@@H](Cc1cnc[nH]1)C(=O)O")
"inactive"
>>> measurement("CCC(NC(C)C)C(O)c1ccc(O)c(O)c1 (stereo unspecified)")
"inactive"
>>> measurement("CC1(C)CCC(NC(=O)[C@@H](N)CCC(=O)O)CC1")
"inactive"
>>> measurement("CNCCC(Oc1ccccc1C)c1ccccc1 (stereo unspecified)")
"inactive"

Consider the record given below.
For COC(=O)[C@H]1[C@H]2C[C@H]3c4[nH]c5ccccc5c4CCN3C[C@H]2CC[C@@H]1O the compound record lists outcome as inactive

----------
# EXPERIMENT: qHTS of pediatric cancer cell lines to identify multiple opportunities for drug repurposing: Primary screen for LAN-5 cells (AID 1347100)
# EXPERIMENTAL SETUP: LAN-5 neuroblastoma viability, CellTiter-Glo luminescence, 48 h; series mostly up to 46 µM
Results filed as inconclusive are left out. The source made the active and inactive calls. The call rests on the fitted dose curve; in most records, active means well fitted cell-killing curve with a large enough effect; inconclusive means small, poorly fitted or top-dose-only effect; inactive means no such curve, though single readings can be large or run the other way.
Pick one and only one: 1 (active), 0 (inactive)

[ask] For Nc1ccc(C(=O)O)cc1 , what call appears in the results of this test?
[reply] 0

[ask] For Cc1cc2c(cc1CC(=O)c1sccc1S(=O)(=O)Nc1onc(C)c1Cl)OCO2 , what call appears in the results of this test?
[reply] 0

[ask] For Nc1nc2ncc(CNc3ccc(C(=O)N[C@@H](CCC(=O)O)C(=O)O)cc3)nc2c(=O)[nH]1 , what call appears in the results of this test?
[reply] 0

[ask] For CCCCCCCCCCCCCCCC[N+](C)(C)CCN(Cc1ccc(OC)cc1)c1ncccn1 , what call appears in the results of this test?
[reply] 1

[ask] For O=c1ccc2ccccc2o1 , what call appears in the results of this test?
[reply] 0

[ask] For CC(C)=CCC1C(=O)N(c2ccccc2)N(c2ccccc2)C1=O , what call appears in the results of this test?
[reply] 1

[ask] For CCCCCCC[N+](CC)(CC)CCCCc1ccc(Cl)cc1 , what call appears in the results of this test?
[reply] 1

[ask] For CCN(CC)CCOC(=O)C(c1ccccc1)C1CCCCC1 (stereo unspecified) , what call appears in the results of this test?
[reply] 0

[ask] For C=CCc1ccc(O)c(OC)c1 , what call appears in the results of this test?
[reply] 0

[ask] For COc1cc2c(cc1OC)C(C(C(=O)N(CCc1ccc(OC)c(OC)c1OC)CCc1ccc(OC)c(OC)c1OC)c1ccccc1)=NCC2 (stereo unspecified) , what call appears in the results of this test?
[reply] 0

[ask] For Cc1cc(O)c(C(C)C)cc1Cl , what call appears in the results of this test?
[reply] 0

----------
# System: GB4
# EXPERIMENT: qHTS profiling for inhibitors of Plasmodium falciparum proliferation (AID 504749); note: nearly all actives have a fitted effect of over 60% in size
# EXPERIMENTAL SETUP: P. falciparum in erythrocytes, SYBR Green DNA, 72 h; series mostly up to 28.7 µM
Results filed as inconclusive are left out. Active and inactive are the calls of the source. Calls come from the whole dose curve; as a rule, active = well fitted inhibition curve with a large enough effect; inconclusive = small, poorly fitted or top-dose-only effect; inactive = flat fitted curve, though single readings scatter. Numbered stars: 1 amine (or outer) side, 2 acyl side, 3 side chain; on linkers, the order of the positions; unused ones are H or OH. Bridge positions count the residues as written; N and C are the ends. Square brackets hold non-standard residues; d marks the D form. Peptide text beside a SMILES is read from it. I, II: the chains in the order shown. Actinocin(9to1) = Cc1c2oc3c(C)ccc(C(=O)[*:1])c3nc-2c(C(=O)[*:2])c(N)c1=O; NMeV = CN[C@H](C(=O)O)C(C)C; Sar = CNCC(=O)O
Pick one and only one: active, inactive

[ask] For Nc1ccc(C(=O)Nc2ccccc2N)cc1 , what call appears in the results of this test?
[reply] inactive

[ask] For CCCn1c(=O)[nH]c(=O)c2[nH]cnc21 , what call appears in the results of this test?
[reply] inactive

[ask] For O=C(O)CNC(=O)c1ccccc1 , what call appears in the results of this test?
[reply] inactive

[ask] For NC(CO)(CO)CO , what call appears in the results of this test?
[reply] inactive

[ask] For COC(=O)[C@H]1[C@H]2C[C@H]3c4[nH]c5ccccc5c4CCN3C[C@H]2CC[C@@H]1O , what call appears in the results of this test?
[reply] inactive

[ask] For O=C(Nc1ccc(Oc2ccc(Cl)cc2)c(Cl)c1)c1cc(I)cc(I)c1O , what call appears in the results of this test?
[reply] inactive

[ask] For Cc1c2oc3c(C)ccc(C(=O)N[C@@H]4C(=O)N[C@H](C(C)C)C(=O)N5CCC[C@H]5C(=O)N(C)CC(=O)N(C)[C@@H](C(C)C)C(=O)O[C@@H]4C)c3nc-2c(C(=O)N[C@@H]2C(=O)N[C@H](C(C)C)C(=O)N3CCC[C@H]3C(=O)N(C)CC(=O)N(C)[C@@H](C(C)C)C(=O)O[C@@H]2C)c(N)c1=O (I: T[dV]P[Sar][NMeV] / II: T[dV]P[Sar][NMeV]; ester I:1-I:C, II:1-II:C; linker I:N-II:N via Actinocin(9to1)) , what call appears in the results of this test?
[reply] active

[ask] For CCn1cc(C(=O)O)c(=O)c2cnc(N3CCCC3)nc21 , what call appears in the results of this test?
[reply] inactive

----------
# Test system: HeLa
# EXPERIMENT: Primary qHTS to identify gynecologic anti-cancer compounds using libraries of approved drugs and bioactive compounds (AID 1345084); note: nearly all actives have a fitted effect of over 55% in size
# EXPERIMENTAL SETUP: Gynecologic cancer cell panel viability, ATPlite luminescence, 48 h; series mostly up to 57.5 µM
Records with an inconclusive call do not appear. Active and inactive are the calls of the source. Calls follow the shape of the dose curve; as a rule, active = well fitted cell-killing curve with a large enough effect; inconclusive = small, poorly fitted or top-dose-only effect, or effect the other way; inactive = flat fitted curve, though single readings scatter.
Pick one and only one: active, inactive

[ask] For CC(CCc1ccccc1)NCC(O)c1ccc(O)c(C(N)=O)c1 (stereo not drawn) , what call appears in the results of this test?
[reply] inactive

[ask] For Oc1c(I)cc(I)c2cccnc12 , what call appears in the results of this test?
[reply] inactive

[ask] For N[C@@H](CCC(=O)N[C@@H](CS)C(=O)NCC(=O)O)C(=O)O , what call appears in the results of this test?
[reply] inactive

[ask] For COc1cc2c(cc1OC)C(C(C(=O)N(CCc1ccc(OC)c(OC)c1OC)CCc1ccc(OC)c(OC)c1OC)c1ccccc1)=NCC2 (stereo not drawn) , what call appears in the results of this test?
[reply] inactive

[ask] For CC(=O)OCC(=O)NCCCOc1cccc(CN2CCCCC2)c1 , what call appears in the results of this test?
[reply] inactive

[ask] For C[C@H]1C[C@H]2[C@@H]3CCC4=CC(=O)C=C[C@]4(C)[C@@]3(Cl)[C@@H](O)C[C@]2(C)[C@@]1(O)C(=O)CO , what call appears in the results of this test?
[reply] inactive

[ask] For OCc1ccccc1O , what call appears in the results of this test?
[reply] inactive

[ask] For CN1CCN(CCCN2c3ccccc3Sc3ccc(S(=O)(=O)N(C)C)cc32)CC1 , what call appears in the results of this test?
[reply] inactive

[ask] For Nc1ccn([C@@H]2O[C@H](CO)[C@@H](O)C2(F)F)c(=O)n1 , what call appears in the results of this test?
[reply] inactive

[ask] For CCOC(=O)c1cccc(N)c1 , what call appears in the results of this test?
[reply] inactive

[ask] For C=CCc1ccc(O)c(OC)c1 , what call appears in the results of this test?
[reply] inactive

[ask] For CC[C@@H](CO)NCCN[C@@H](CC)CO , what call appears in the results of this test?
[reply] inactive

[ask] For O=C(OCC(O)CO)c1ccccc1Nc1ccnc2cc(Cl)ccc12 (stereo not drawn) , what call appears in the results of this test?
[reply] inactive

[ask] For CC(O)C(=O)O (stereo not drawn) , what call appears in the results of this test?
[reply] inactive

[ask] For Cc1ccc(O)c2ncccc12 , what call appears in the results of this test?
[reply] inactive

[ask] For CCOC(=O)COc1ccc2c(C)c(CCN(CC)CC)c(=O)oc2c1Cl , what call appears in the results of this test?
[reply] inactive

[ask] For CCN(CCCCOC(=O)c1ccc(OC)c(OC)c1)C(C)Cc1ccc(OC)cc1 (stereo not drawn) , what call appears in the results of this test?
[reply] inactive

[ask] For COc1ccc(CCN2CCC(Nc3nc4ccccc4n3Cc3ccc(F)cc3)CC2)cc1 , what call appears in the results of this test?
[reply] active
